Ref: the supplement of paper PMC11061612

Attribute: Bliss excess
- System: HDQ-P1 (Breast Carcinoma)
- test.protocol: Bliss excess, mean over the matrix (fraction); higher = more synergy;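 further: after 72 h of two-drug dosing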
measured.parameter: Bliss excess

molecule	measured.parameter	observed.value
CN(CCO)CC[C@H](CSc1ccccc1)Nc1ccc(S(=O)(=O)NC(=O)c2ccc(N3CCC([C@@H](O)c4ccccc4-c4ccc(Cl)cc4)CC3)cc2)cc1S(=O)(=O)C(F)(F)F [AZD4320] + C1CN(CCC1(C(=O)N[C@@H](CCO)C2=CC=C(C=C2)Cl)N)C3=NC=NC4=C3C=CN4 [Capivasertib] (first compound max 1 µM, 7x7, partner max 3 µM)	Bliss excess	0.0119
Cc1c2c(nn1C)CSCc1cc(n(C)n1)CSc1cc(c3ccccc3c1)OCCCc1c(C(=O)O)n(C)c3c-2c(Cl)ccc13 [AZD5991] + C=CCn1c(=O)c2cnc(Nc3ccc(N4CCN(C)CC4)cc3)nc2n1-c1cccc(C(C)(C)O)n1 [AZD1775] (first compound max 1 µM, partner max 1 µM)	Bliss excess	-0.0575
CC1(C)CCC(CN2CCN(c3ccc(C(=O)NS(=O)(=O)c4ccc(NCC5CCOCC5)c([N+](=O)[O-])c4)c(Oc4cnc5[nH]ccc5c4)c3)CC2)=C(c2ccc(Cl)cc2)C1 [Venetoclax] + C[C@@H](Nc1cc(F)cc(F)c1)c1cc(C(=O)N(C)C)cc2c(=O)cc(N3CCOCC3)oc12 [AZD8186] (first compound max 1 µM, 7x7, partner max 3 µM)	Bliss excess	-0.0215
Cc1cc2ncnn2cc1Nc1ncc2c(n1)n(C1CCOCC1)c(=O)n2C [AZD7648] + O=C(c1cc(Cc2n[nH]c(=O)c3ccccc23)ccc1F)N1CCN(C(=O)C2CC2)CC1 [Olaparib] (first compound max 10 µM, 7x7, partner max 10 µM)	Bliss excess	0.0133
Cc1cc2ncnn2cc1Nc1ncc2c(n1)n(C1CCOCC1)c(=O)n2C [AZD7648] + CCN(CCO)CCCOc1ccc2c(Nc3cc(CC(=O)Nc4cccc(F)c4)[nH]n3)ncnc2c1 [AZD2811] (first compound max 10 µM, 7x7, partner max 1 µM)	Bliss excess	-0.0154
CC(=O)Nc1cccc(-n2c(=O)n(C3CC3)c(=O)c3c(Nc4ccc(I)cc4F)n(C)c(=O)c(C)c32)c1 [Trametinib] + Cc1nc(-c2cn3c(n2)-c2ccc(-c4cnn(C(C)(C)C(N)=O)c4)cc2OCC3)n(C(C)C)n1 [Taselisib] (first compound max 1 µM, 7x7, partner max 10 µM)	Bliss excess	0.221
CS(=O)(=O)CCNCc1ccc(-c2ccc3ncnc(Nc4ccc(OCc5cccc(F)c5)c(Cl)c4)c3c2)o1 [Lapatinib] + C[C@@H](Oc1cc(-c2cnn(C3CCNCC3)c2)cnc1N)c1c(Cl)ccc(F)c1Cl [Crizotinib] (first compound max 10 µM, 7x7, partner max 10 µM)	Bliss excess	-0.0144
C[C@@H](c1ccc2nccn2c1)n1nnc2ncc(-c3cnn(C)c3)nc21 [Savolitinib] + Cc1c2c(nn1C)CSCc1cc(n(C)n1)CSc1cc(c3ccccc3c1)OCCCc1c(C(=O)O)n(C)c3c-2c(Cl)ccc13 [AZD5991] (first compound max 1 µM, 7x7, partner max 1 µM)	Bliss excess	-0.0456
COc1nnc2ccc(N3CCC(c4ccc(OCCN5CCN(C)C(=O)[C@H]5C)cc4)CC3)nn12 [AZD5153] + CN(CC[C@H](CSC1=CC=CC=C1)NC2=C(C=C(C=C2)S(=O)(=O)NC(=O)C3=CC=C(C=C3)N4CCC(CC4)[C@H](C5=CC=CC=C5C6=CC=C(C=C6)Cl)O)S(=O)(=O)C(F)(F)F)CCO [AZD4320] (first compound max 1 µM, 7x7, partner max 1 µM)	Bliss excess	0.0844
Cc1c2c(nn1C)CSCc1cc(n(C)n1)CSc1cc(c3ccccc3c1)OCCCc1c(C(=O)O)n(C)c3c-2c(Cl)ccc13 [AZD5991] + CN(C)CCCOc1ccc(-c2ccc3ncc4c(c3c2)n(C2CCOCC2)c(=O)n4C)cn1 [AZD0156] (first compound max 1 µM, 7x7, partner max 1 µM)	Bliss excess	0.0104
Cc1c2c(nn1C)CSCc1cc(n(C)n1)CSc1cc(c3ccccc3c1)OCCCc1c(C(=O)O)n(C)c3c-2c(Cl)ccc13 [AZD5991] + Cc1cc2ncnn2cc1Nc1ncc2c(n1)n(C1CCOCC1)c(=O)n2C [AZD7648] (first compound max 1 µM, 7x7, partner max 10 µM)	Bliss excess	-0.0352
COc1nnc2ccc(N3CCC(c4ccc(OCCN5CCN(C)C(=O)[C@H]5C)cc4)CC3)nn12 [AZD5153] + C[C@@H]1COCCN1C2=NC(=NC(=C2)C3(CC3)[S@](=N)(=O)C)C4=C5C=CNC5=NC=C4 [AZD6738] (first compound max 1 µM, 7x7, partner max 10 µM)	Bliss excess	0.0527
Cc1c2c(nn1C)CSCc1cc(n(C)n1)CSc1cc(c3ccccc3c1)OCCCc1c(C(=O)O)n(C)c3c-2c(Cl)ccc13 [AZD5991] + CCN(CCO)CCCOc1ccc2c(Nc3cc(CC(=O)Nc4cccc(F)c4)[nH]n3)ncnc2c1 [AZD2811] (first compound max 1 µM, 7x7, partner max 1 µM)	Bliss excess	-0.0283

###

- Test system: SU-DHL-8 (B-Cell Non-Hodgkin's Lymphoma)
- test.protocol: Bliss excess, mean over the matrix (fraction); higher = more synergy
Cut-off -0.04 on Bliss excess, inclusive. At or above means Yes; below means No.

molecule	test.system	category.label
CC1(C)CCC(CN2CCN(c3ccc(C(=O)NS(=O)(=O)c4ccc(NCC5CCOCC5)c([N+](=O)[O-])c4)c(Oc4cnc5[nH]ccc5c4)c3)CC2)=C(c2ccc(Cl)cc2)C1 [Venetoclax] + C1CN(CCC1(C(=O)N[C@@H](CCO)C2=CC=C(C=C2)Cl)N)C3=NC=NC4=C3C=CN4 [Capivasertib] (first compound max 1 µM, 7x7, partner max 3 µM)	SU-DHL-8 (B-Cell Non-Hodgkin's Lymphoma)	No
C[C@@H](c1ccc2nccn2c1)n1nnc2ncc(-c3cnn(C)c3)nc21 [Savolitinib] + Cc1c2c(nn1C)CSCc1cc(n(C)n1)CSc1cc(c3ccccc3c1)OCCCc1c(C(=O)O)n(C)c3c-2c(Cl)ccc13 [AZD5991] (first compound max 1 µM, 7x7, partner max 1 µM)	SU-DHL-8 (B-Cell Non-Hodgkin's Lymphoma)	No
CC1(C)CCC(CN2CCN(c3ccc(C(=O)NS(=O)(=O)c4ccc(NCC5CCOCC5)c([N+](=O)[O-])c4)c(Oc4cnc5[nH]ccc5c4)c3)CC2)=C(c2ccc(Cl)cc2)C1 [Venetoclax] + C=CCn1c(=O)c2cnc(Nc3ccc(N4CCN(C)CC4)cc3)nc2n1-c1cccc(C(C)(C)O)n1 [AZD1775] (first compound max 1 µM, partner max 1 µM)	SU-DHL-8 (B-Cell Non-Hodgkin's Lymphoma)	Yes
CN(CCO)CC[C@H](CSc1ccccc1)Nc1ccc(S(=O)(=O)NC(=O)c2ccc(N3CCC([C@@H](O)c4ccccc4-c4ccc(Cl)cc4)CC3)cc2)cc1S(=O)(=O)C(F)(F)F [AZD4320] + Cc1cc2ncnn2cc1Nc1ncc2c(n1)n(C1CCOCC1)c(=O)n2C [AZD7648] (first compound max 1 µM, 7x7, partner max 10 µM)	SU-DHL-8 (B-Cell Non-Hodgkin's Lymphoma)	Yes
CN(CCO)CC[C@H](CSc1ccccc1)Nc1ccc(S(=O)(=O)NC(=O)c2ccc(N3CCC([C@@H](O)c4ccccc4-c4ccc(Cl)cc4)CC3)cc2)cc1S(=O)(=O)C(F)(F)F [AZD4320] + C[C@@H](Nc1cc(F)cc(F)c1)c1cc(C(=O)N(C)C)cc2c(=O)cc(N3CCOCC3)oc12 [AZD8186] (first compound max 1 µM, 7x7, partner max 3 µM)	SU-DHL-8 (B-Cell Non-Hodgkin's Lymphoma)	No
Cc1c2c(nn1C)CSCc1cc(n(C)n1)CSc1cc(c3ccccc3c1)OCCCc1c(C(=O)O)n(C)c3c-2c(Cl)ccc13 [AZD5991] + Cc1cc2ncnn2cc1Nc1ncc2c(n1)n(C1CCOCC1)c(=O)n2C [AZD7648] (first compound max 1 µM, 7x7, partner max 10 µM)	SU-DHL-8 (B-Cell Non-Hodgkin's Lymphoma)	No

###

Attribute: Bliss excess
- System: WIL2-NS (Non-Cancerous)
- test.protocol: Bliss excess, mean over the matrix (fraction); higher = more synergy

compound	Bliss excess
CN(CCO)CC[C@H](CSc1ccccc1)Nc1ccc(S(=O)(=O)NC(=O)c2ccc(N3CCC([C@@H](O)c4ccccc4-c4ccc(Cl)cc4)CC3)cc2)cc1S(=O)(=O)C(F)(F)F [AZD4320] + C1CN(CCC1(C(=O)N[C@@H](CCO)C2=CC=C(C=C2)Cl)N)C3=NC=NC4=C3C=CN4 [Capivasertib] (first compound max 1 µM, 7x7, partner max 3 µM)	0.0219
CCN(CCO)CCCOc1ccc2c(Nc3cc(CC(=O)Nc4cccc(F)c4)[nH]n3)ncnc2c1 [AZD2811] + C=CCn1c(=O)c2cnc(Nc3ccc(N4CCN(C)CC4)cc3)nc2n1-c1cccc(C(C)(C)O)n1 [AZD1775] (first compound max 1 µM, partner max 1 µM)	0.0117
COc1cccc(OCCCN)c1-c1cc(Nc2cnc(C#N)cn2)n[nH]1 [Prexasertib] + C=CCn1c(=O)c2cnc(Nc3ccc(N4CCN(C)CC4)cc3)nc2n1-c1cccc(C(C)(C)O)n1 [AZD1775] (first compound max 1 µM, partner max 1 µM)	0.0513
